Catalogue of binders with associated Relative cAMP EC50
Molecular target: hGLP-1R (Homo sapiens, UniProt P43220)
Sequence (P43220 24-463): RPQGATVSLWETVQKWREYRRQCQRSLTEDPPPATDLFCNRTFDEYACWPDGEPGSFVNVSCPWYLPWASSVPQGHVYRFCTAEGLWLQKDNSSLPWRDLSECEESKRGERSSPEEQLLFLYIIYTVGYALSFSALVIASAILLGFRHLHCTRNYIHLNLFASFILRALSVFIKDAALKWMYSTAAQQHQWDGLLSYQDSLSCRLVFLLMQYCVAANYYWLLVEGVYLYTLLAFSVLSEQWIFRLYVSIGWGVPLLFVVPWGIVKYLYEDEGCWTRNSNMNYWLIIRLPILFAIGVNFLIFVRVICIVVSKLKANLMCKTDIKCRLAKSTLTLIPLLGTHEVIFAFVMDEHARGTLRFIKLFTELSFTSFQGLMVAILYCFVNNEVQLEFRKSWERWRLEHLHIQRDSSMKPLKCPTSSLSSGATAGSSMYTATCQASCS
Test: cell-based or functional assay
Non-standard residues stand in square brackets, D forms with d. No end group written: not given here. αMeL = CC(C)C[C@](C)(N)C(=O)O; Aib = CC(C)(N)C(=O)O

Binder: YXQGTXTSDYXIXLDXKAQXXFIEXLEEGGPSSGEPPPE (synthetic construct; SITE 2: note = 2-Aminoisobutyric Acid; SITE 6: note = alpha-methyl-2-fluoro-L-phenylalanine; SITE 11: note = alpha-methyl-L-serine; SITE 13: note = alpha-methyl-leucine; SITE 16: note = L-ornithine; SITE 17: note = Lysine is chemically modified through conjugation of the epsilon) [Example 402]
Unit Text: nM
Relative cAMP EC50: 0.725
//
Binder: YXQGTFTSDXXQXLDXKAQXQFIQXLIAGGPSSGEPPPSGGGE (not fully specified; non-natural residues; C18 diacid-γGlu-e on Lys; C-terminal amide; synthetic construct; SITE 2: note = 2-Aminoisobutyric Acid; SITE 10: note = 3-(4-Pyridyl)-L-alanine; SITE 11: note = alpha-methyl-L-serine; SITE 13: note = alpha-methyl-leucine; SITE 16: note = L-ornithine; SITE 17: note = Lysine is chemically modified through conjugation of the epsilon-amino group) [Example 1133]
Unit Text: nM
Relative cAMP EC50: 0.768
//
Binder: YXQGTXTSDXXIXLDXQAQXEFIEXLIEGGPSSGAPPPSGGGE (not fully specified; no fatty acid conjugated; synthetic construct; SITE 2: note = 2-Aminoisobutyric Acid; SITE 6: note = alpha-methyl-2-fluoro-L-phenylalanine; SITE 10: note = …; SITE 11: note = alpha-methyl-L-serine; SITE 13: note = alpha-methyl-leucine; SITE 16: note = L-ornithine; SITE 20: note = 3-(4-Pyridyl)-L-alanine) [Example 1234]
Unit Text: nM
Relative cAMP EC50: 1.17
//
Binder: Y[Aib]QGTFTSDFSK[αMeL]LDKKAQQAFIEYLLA[Aib]GPSSGAPPPSEG-NH2 (not fully specified (residue 17)) [Example 30]
Unit Text: nM
Relative cAMP EC50: 3.18
//
Binder: YXQGTFTSDFSKXLDKKAQXAFIEYLLEGGPSSGAPPPGEG (Aib, αMeL, acylated Lys, C-terminal amide; synthetic construct; SITE 2: note = 2-Aminoisobutyric Acid; SITE 13: note = alpha-methyl-leucine; SITE 17: note = Lysine is chemically modified through conjugation of the epsilon-amino group of the Lysine side chain with (2-[2-(2-Amino-ethoxy)-ethoxy]-acetyl)2-(gamma-Glu)-CO-(CH2 )18-CO2H; SITE 20:) [Example 17]
Unit Text: nM
Relative cAMP EC50: 2.96
//
Binder: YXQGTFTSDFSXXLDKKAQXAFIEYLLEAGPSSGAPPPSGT (non-natural residues, AEEA-γGlu-C18 diacid acylation; synthetic construct; SITE 2: note = 2-Aminoisobutyric Acid; SITE 12: note = L-ornithine; SITE 13: note = alpha-methyl-leucine; SITE 17: note = Lysine is chemically modified through conjugation of the epsilon-amino group of the Lysine side chain with (2-[2-(2-Amino-ethoxy)-ethoxy]-acetyl)-(gamma-Glu)) [Example 213]
Unit Text: nM
Relative cAMP EC50: 1.9
